experiment: soluble on expression in E. coli; label from the status in PepcDB or PDB records
endpoint-label: soluble on expression in E. coli

q: Record request: soluble on expression in E. coli value, item MKRTGILLVNLGTPKDSSKTEVRKYLKTFLSDRRVIKIHPIIWKPILNGIILNIRPKKSAKLYQKICTENGFPLLEYTEKQMENLKNICPEVEVTIGMSYSEPSIETALDTLLSKEIEELNVIPMYPQYSGTTVGSVFDSVMNYFIKSDRIVDIKFIRSFYNNPQYIDYFSKKINEALNESPIDAIVFSYHGIPMSYVKDGDNYPKECTK
a: not soluble

q: Record request: soluble on expression in E. coli value, item MKEKDLIRFMDRMIEERKAEYALGTAHIYQASRNALSAFLKAHDIPFKRVRPELLKQFERFLRRRGNSWNTVSTYMRVLRAVYNRAVDRRLAPHVPHLFKAVYTGTQADIKRALKAEEMGQLLDTKCTRKQSELLQKTHHLFVLMFLLRGLPFVDLAYIQKKDLNGNILTYHRRKTGRQITITVTKDAMNIIREYMDTTTESPYLFPILSAEGGEDTIYREYQQALRIFNYQLTKLGELLGLTTELTSYTARHTWATLAYYLEVHPGIIREAMGHSSIKVTETYLKPFNIKKLDETNLSIIGYAKRSFEG
a: not soluble
